Overview of recorded IC50 for various molecules
# TEST_TARGET: cyclin D1/cdk 4 enzyme (Homo sapiens)
# Construct: made in house; host or cells: Sf9 insect cells, recombinant baculovirus
# Sequence (P11802 whole entry, species assumed): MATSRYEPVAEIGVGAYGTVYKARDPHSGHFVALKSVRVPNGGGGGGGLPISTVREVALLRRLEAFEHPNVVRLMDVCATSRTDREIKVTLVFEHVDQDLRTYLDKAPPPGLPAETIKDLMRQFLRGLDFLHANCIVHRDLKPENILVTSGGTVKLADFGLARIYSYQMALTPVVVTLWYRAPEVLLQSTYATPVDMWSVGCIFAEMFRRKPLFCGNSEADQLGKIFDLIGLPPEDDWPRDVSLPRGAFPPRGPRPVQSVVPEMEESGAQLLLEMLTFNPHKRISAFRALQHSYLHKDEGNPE
# Sequence (P24385 whole entry partner, species assumed): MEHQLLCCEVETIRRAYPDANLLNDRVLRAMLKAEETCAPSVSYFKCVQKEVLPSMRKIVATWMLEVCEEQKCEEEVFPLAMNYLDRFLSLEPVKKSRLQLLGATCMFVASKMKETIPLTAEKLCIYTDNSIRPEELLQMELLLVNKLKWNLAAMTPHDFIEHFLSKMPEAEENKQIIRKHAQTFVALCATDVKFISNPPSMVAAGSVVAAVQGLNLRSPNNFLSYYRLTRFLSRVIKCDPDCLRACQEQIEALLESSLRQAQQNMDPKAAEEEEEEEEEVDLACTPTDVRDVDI
# ASSAY_PROTOCOL: CDK4 ELISA kinase assay (phospho-Rb ser 795 detection)
# Format: biochemical
# STATED_CONDITIONS: In Vitro Enzyme Assay, cyclin D1/cdk 4, read-out: CDK4 IC50
MEASUREMENT_TYPE: IC50 (nM)

MOLECULE: CN1CCN(c2ccc(NC=C3C(=O)NC(=O)c4ccc(C=CCN5CC(=O)NC5=O)cc43)cc2)CC1
VALUE_MEASURED: 5040
--
MOLECULE: CN(C)C1CCN(Cc2ccc(N/C=C3\C(=O)NC(=O)c4ccc(-c5ccoc5)cc43)cc2)C1 (centres unmarked)
VALUE_MEASURED: 170
--
MOLECULE: O=C1NC(=O)c2ccc(-c3ccoc3)cc2/C1=C/Nc1ccc(CN2CCC(CCO)CC2)cc1
VALUE_MEASURED: 50
--
MOLECULE: N#CCc1ccc(NC=C2C(=O)NC(=O)c3ccc(-c4cccc(-c5ccccc5)c4)cc32)cc1
VALUE_MEASURED: 25900
--
MOLECULE: CN1CCN(c2ccc(NC=C3C(=O)NC(=O)c4ccc(-c5ccc6[nH]ccc6c5)cc43)cc2)CC1
VALUE_MEASURED: 2000
--
MOLECULE: O=C1NC(=O)c2ccccc2C1=CNCc1ccc(NS(=O)(=O)Cc2ccccc2)cc1
VALUE_MEASURED: 38500
--
MOLECULE: COc1ccc(-c2ccc3c(c2)C(=CNc2ccc(N4CCN(C)CC4)cc2)C(=O)NC3=O)cc1
VALUE_MEASURED: 3400
--
MOLECULE: O=C1NC(=O)c2ccc(I)cc2/C1=C/Nc1ccc(CN2CCC(CCO)CC2)cc1
VALUE_MEASURED: 210
